Test system: Hepatitis C virus
Test: Inhibition of HCV 1b NS5B Cdelta21 RNA dependent RNA polymerase expressed in Escherichia coli after 30 mins by fluorescence assay
Format: functional, Hepatitis C virus subtype 1b
Conditions: 0.5 h
Give measured pIC50 for each item. Keep answers brief.
Kindly note that pIC50 refers to -log10 of the concentration in mol/L and answer with the value alone.

Please list pIC50 recorded for the compound CC(=O)Nc1ccc(-c2nc3cc(Cl)c(Cl)cc3[nH]2)cc1
5.30

Please list pIC50 recorded for the compound Nc1ccc(-c2nc3cc([N+](=O)[O-])ccc3[nH]2)cc1
4.48

Please list pIC50 recorded for the compound CC(=O)Nc1ccc(-c2nc3cc([N+](=O)[O-])ccc3[nH]2)cc1
4.52

* * *

Give measured CC50 for each item. Keep answers brief.
Assay: Cytotoxicity against BHK cells after 48 to 96 hrs by MTT assay
Type: cell-based, Mesocricetus auratus
Settings: hamster
Give just the number in µM; leave the unit off.

Please list CC50 recorded for the molecule COc1cccc(-c2nc3cc(C(F)(F)F)ccc3[nH]2)c1
90

Please list CC50 recorded for the molecule COc1cc(-c2nc3cc(C(F)(F)F)ccc3[nH]2)cc(OC)c1OC
31

* * *

Assay: Cytotoxicity against african green monkey Vero cells
Format: cell-based
Conditions: chlorocebus sabaeus
Decision: CC50 beneath 60 µM gives YES; CC50 meeting or exceeding 60 µM gives NO.

Item COc1cc(-c2nc3cc(C(F)(F)F)ccc3[nH]2)cc(OC)c1OC : CC50 beneath 60 µM, strictly?
YES

Item CN1CCN(CC(=O)Nc2ccc(-c3nc4cc(Cl)c(Cl)cc4[nH]3)cc2)CC1 : CC50 beneath 60 µM, strictly?
NO

Item COc1ccc(-c2nc3cc(Cl)c(Cl)cc3[nH]2)c([N+](=O)[O-])c1 : CC50 beneath 60 µM, strictly?
NO

Item O=[N+]([O-])c1ccccc1-c1nc2ccccc2[nH]1 : CC50 beneath 60 µM, strictly?
NO

Item O=[N+]([O-])c1ccc(-c2nc3cc(C(F)(F)F)ccc3[nH]2)c([N+](=O)[O-])c1 : CC50 beneath 60 µM, strictly?
YES

Item Fc1cccc(F)c1-c1nc2cc(C(F)(F)F)ccc2[nH]1 : CC50 beneath 60 µM, strictly?
YES

Item O=C(CN1CCN(c2ccccc2)CC1)Nc1ccc(-c2nc3cc(C(F)(F)F)ccc3n2C23CC4CC(CC(C4)C2)C3)cc1 : CC50 beneath 60 µM, strictly?
NO

Item Nc1ccc(-c2nc3cc([N+](=O)[O-])ccc3[nH]2)cc1 : CC50 beneath 60 µM, strictly?
NO

Item CCN(CC)CC(=O)Nc1ccc(-c2nc3cc(C(F)(F)F)ccc3n2C)cc1 : CC50 beneath 60 µM, strictly?
NO

* * *

System: Coxsackievirus B2
Assay: Antiviral activity against Human coxsackievirus B2 Ohio-1 infected in african green monkey Vero cells after 3 days by plaque reduction assay
Assay type: functional, organism-based, Coxsackievirus B2 (strain Ohio-1)
Details: Enterovirus B, Vero, 72 h
pEC50: −log10 of the molar value.
Give yes (1) when the value for pEC50 is at least 5. Give no (0) when it is less.

Has COc1cccc(-c2nc3cc(C(F)(F)F)ccc3[nH]2)c1 a recorded pEC50 greater than or equal to 5?
yes (1)

Has O=[N+]([O-])c1ccc(-c2nc3cc(Cl)c(Cl)cc3[nH]2)cc1 a recorded pEC50 greater than or equal to 5?
no (0)

Has O=[N+]([O-])c1ccc(-c2nc3cc(C(F)(F)F)ccc3n2C2CCCCC2)cc1 a recorded pEC50 greater than or equal to 5?
no (0)

Has Cn1c(-c2ccc(NC(=O)CN3CCCCC3)cc2)nc2cc(C(F)(F)F)ccc21 a recorded pEC50 greater than or equal to 5?
no (0)

Has NC(=O)c1ncn([C@@H]2O[C@H](CO)[C@@H](O)[C@H]2O)n1 a recorded pEC50 greater than or equal to 5?
no (0)

Has Nc1ccc(-c2nc3cc([N+](=O)[O-])ccc3[nH]2)cc1 a recorded pEC50 greater than or equal to 5?
no (0)

Has O=[N+]([O-])c1ccc(-c2nc3cc(C(F)(F)F)ccc3n2C23CC4CC(CC(C4)C2)C3)cc1 a recorded pEC50 greater than or equal to 5?
no (0)

Has CC(=O)Nc1ccc(-c2nc3cc(Cl)c(Cl)cc3[nH]2)cc1 a recorded pEC50 greater than or equal to 5?
no (0)

Has O=C(CN1CCCC1)Nc1ccc(-c2nc3cc(Cl)c(Cl)cc3[nH]2)cc1 a recorded pEC50 greater than or equal to 5?
yes (1)

* * *

Assay: Cytotoxicity against MDBK cells after 48 to 96 hrs by MTT assay
Type: cell-based, Bos taurus
Details: cattle, MDBK cells
Give measured CC50 for each item. Keep answers brief.
Give just the number in µM; leave the unit off.

Please list CC50 recorded for the molecule Fc1ccc(-c2nc3cc(C(F)(F)F)ccc3[nH]2)cc1
19

Please list CC50 recorded for the molecule Cn1c(-c2ccc(NC(=O)CN3CCCCC3)cc2)nc2cc(C(F)(F)F)ccc21
100

Please list CC50 recorded for the molecule O=C(CCl)Nc1ccc(-c2nc3cc(C(F)(F)F)ccc3n2C23CC4CC(CC(C4)C2)C3)cc1
18

Please list CC50 recorded for the molecule COc1cc(-c2nc3cc(C(F)(F)F)ccc3[nH]2)cc(OC)c1OC
18

Please list CC50 recorded for the molecule CC(=O)Nc1ccc(-c2nc3cc(C(F)(F)F)ccc3n2C2CCCCC2)cc1
17

Please list CC50 recorded for the molecule O=[N+]([O-])c1ccc(-c2nc3cc(C(F)(F)F)ccc3[nH]2)cc1
6

Please list CC50 recorded for the molecule O=[N+]([O-])c1ccc(-c2nc3cc(C(F)(F)F)ccc3n2C2CCCCC2)cc1
68

* * *

Assay: Cytotoxicity against MDBK cells after 48 to 96 hrs by MTT assay
Type: cell-based, Bos taurus
Details: cattle, MDBK cells
Decision: CC50 beneath 50 µM gives 1 (yes); CC50 meeting or exceeding 50 µM gives 0 (no).

Item COc1ccc(-c2nc3cc(C(F)(F)F)ccc3[nH]2)c(OC)c1 : CC50 beneath 50 µM, strictly?
0 (no)

Item O=C(CN1CCOCC1)Nc1ccc(-c2nc3cc(C(F)(F)F)ccc3[nH]2)cc1 : CC50 beneath 50 µM, strictly?
0 (no)

Item COc1cccc(-c2nc3cc(C(F)(F)F)ccc3[nH]2)c1 : CC50 beneath 50 µM, strictly?
1 (yes)

Item O=C(CN1CCCC1)Nc1ccc(-c2nc3ccccc3[nH]2)cc1 : CC50 beneath 50 µM, strictly?
0 (no)

Item O=[N+]([O-])c1ccc(-c2nc3cc(C(F)(F)F)ccc3n2C23CC4CC(CC(C4)C2)C3)cc1 : CC50 beneath 50 µM, strictly?
0 (no)

Item O=C(CN1CCCC1)Nc1ccc(-c2nc3cc(Cl)c(Cl)cc3[nH]2)cc1 : CC50 beneath 50 µM, strictly?
1 (yes)

Item C[C@@]1(O)[C@H](O)[C@@H](CO)O[C@H]1n1cnc2c(=O)[nH]c(N)nc21 [2'-B-METHYL-GUANOSINE] : CC50 beneath 50 µM, strictly?
0 (no)

Item CC(=O)Nc1ccc(-c2nc3cc(C(F)(F)F)ccc3n2C)cc1 : CC50 beneath 50 µM, strictly?
1 (yes)

Item Cn1c(-c2ccc(NC(=O)CN3CCCC3)cc2)nc2cc(C(F)(F)F)ccc21 : CC50 beneath 50 µM, strictly?
0 (no)

Item Nc1ccc(-c2nc3cc(C(F)(F)F)ccc3n2C23CC4CC(CC(C4)C2)C3)cc1 : CC50 beneath 50 µM, strictly?
1 (yes)

Item Cn1c(-c2ccc(N)cc2)nc2cc(C(F)(F)F)ccc21 : CC50 beneath 50 µM, strictly?
0 (no)

Item COc1cc(OC)cc(-c2nc3cc(C(F)(F)F)ccc3[nH]2)c1 : CC50 beneath 50 µM, strictly?
0 (no)

Item O=C(O)CCC(=O)Nc1ccc(-c2nc3cc(C(F)(F)F)ccc3[nH]2)cc1 : CC50 beneath 50 µM, strictly?
0 (no)

Item O=[N+]([O-])c1ccc(-c2nc3cc(C(F)(F)F)ccc3[nH]2)c([N+](=O)[O-])c1 : CC50 beneath 50 µM, strictly?
1 (yes)

Item COc1ccc(-c2nc3cc(C(F)(F)F)ccc3[nH]2)c(N)c1 : CC50 beneath 50 µM, strictly?
1 (yes)

Item Nc1ccc(-c2nc3cc([N+](=O)[O-])ccc3[nH]2)cc1 : CC50 beneath 50 µM, strictly?
0 (no)

Item CCC(=O)Nc1ccc(-c2nc3cc(C(F)(F)F)ccc3n2C)cc1 : CC50 beneath 50 µM, strictly?
0 (no)

Item COc1ccc(-c2nc3cc(C(F)(F)F)ccc3[nH]2)cc1 : CC50 beneath 50 µM, strictly?
0 (no)

Item Cn1c(-c2ccc([N+](=O)[O-])cc2)nc2cc(C(F)(F)F)ccc21 : CC50 beneath 50 µM, strictly?
0 (no)

Item COc1ccc(-c2nc3cc([N+](=O)[O-])ccc3[nH]2)c(OC)c1OC : CC50 beneath 50 µM, strictly?
0 (no)

Item CC(=O)Nc1ccc(-c2nc3cc(C(F)(F)F)ccc3n2C23CC4CC(CC(C4)C2)C3)cc1 : CC50 beneath 50 µM, strictly?
0 (no)

Item CCC(=O)Nc1ccc(-c2nc3cc(C(F)(F)F)ccc3n2C23CC4CC(CC(C4)C2)C3)cc1 : CC50 beneath 50 µM, strictly?
0 (no)

Item Nc1nc2c(ncn2COCCO)c(=O)[nH]1 [ACYCLOVIR] : CC50 beneath 50 µM, strictly?
0 (no)

Item COc1ccc(-c2nc3cc(C(C)=O)ccc3[nH]2)c(OC)c1 : CC50 beneath 50 µM, strictly?
0 (no)

Item C#C[C@@]1(O)[C@H](O)[C@@H](CO)O[C@H]1n1ccc(N)nc1=O [2'-ETHYNYL-D-CYTIDINE] : CC50 beneath 50 µM, strictly?
0 (no)

Item O=[N+]([O-])c1ccccc1-c1nc2ccccc2[nH]1 : CC50 beneath 50 µM, strictly?
0 (no)

Item CN1CCN(CC(=O)Nc2ccc(-c3nc4cc(C(F)(F)F)ccc4n3C)cc2)CC1 : CC50 beneath 50 µM, strictly?
1 (yes)

Item O=C(CN1CCCCC1)Nc1ccc(-c2nc3cc(C(F)(F)F)ccc3[nH]2)cc1 : CC50 beneath 50 µM, strictly?
1 (yes)

Item O=C(CN1CCSCC1)Nc1ccc(-c2nc3cc(C(F)(F)F)ccc3[nH]2)cc1 : CC50 beneath 50 µM, strictly?
0 (no)

Item Nc1ccc(-c2nc3cc(C(F)(F)F)ccc3n2C2CCCCC2)cc1 : CC50 beneath 50 µM, strictly?
0 (no)

Item CCN(CC)CC(=O)Nc1ccc(-c2nc3cc(C(F)(F)F)ccc3n2C)cc1 : CC50 beneath 50 µM, strictly?
0 (no)

Item O=[N+]([O-])c1ccc(-c2nc3ccccc3[nH]2)c([N+](=O)[O-])c1 : CC50 beneath 50 µM, strictly?
1 (yes)

Item NC(=O)c1ncn([C@@H]2O[C@H](CO)[C@@H](O)[C@H]2O)n1 [RIBAVIRIN] : CC50 beneath 50 µM, strictly?
0 (no)

Item Fc1cccc(F)c1-c1nc2cc(Cl)c(Cl)cc2[nH]1 : CC50 beneath 50 µM, strictly?
1 (yes)

Item O=c1cnn([C@@H]2O[C@H](CO)[C@@H](O)[C@H]2O)c(=O)[nH]1 (stereo in doubt; form 2) [6-AZAURIDINE] : CC50 beneath 50 µM, strictly?
0 (no)

Item COc1ccc(-c2nc3cc(C(C)=O)ccc3[nH]2)c(OC)c1OC : CC50 beneath 50 µM, strictly?
0 (no)

Item COc1ccc(-c2nc3cc(C(F)(F)F)ccc3[nH]2)c([N+](=O)[O-])c1 : CC50 beneath 50 µM, strictly?
0 (no)

Item CC(=O)Nc1ccc(-c2nc3cc(Cl)c(Cl)cc3[nH]2)cc1 : CC50 beneath 50 µM, strictly?
0 (no)
